# Test system: Human papillomavirus type 1a protein E7 (residues 44-93)
# experimental protocol: HPV1a E7 fragment binders on microarrays, primary screen, biochemical, small-molecule microarray, residues 44-93, 635 nm fluorescence (AID 1108);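 also: E7 fragment applied at 1 µg/mL in TBST for 1 h at 4 C; score combines spot fluorescence with its signal to noise ratio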
# measurement parameters: small-molecule microarray binding, fluorescence 635 nm; higher = more signal
# composite z-score per entry
property: composite z-score

molecule	reading
O=C1NC(=O)C2C1C=CC(C(O)c1ccc(Br)cc1)N2Nc1ccccn1 (centres undefined)	-0.444
O=C(CS)NCCCCCCNC(=O)[C@H]1C[C@H]2C(=O)N[C@@H](Cc3ccccc3)C(=O)N2[C@H]1c1cccc(OCCO)c1	1.37
C=C(CCCC)/C(=C/C[C@@H](OC(=O)c1ccncc1)c1cccc(OCCO)c1)c1cnc2ccccc2c1	1.3
COCCOC(=O)N1C(=O)[C@@]2(c3cc(C#CC4(O)CCCCCC4)ccc31)[C@H](c1ccccc1OCCO)N1[C@H](c3ccccc3)[C@H](c3ccccc3)OC(=O)[C@H]1[C@@H]2C(N)=O	-0.389
Cc1ccc(S[C@]2(C(=O)NCCN3CCOCC3)CC(=O)N(Cc3ccccc3C(F)(F)F)[C@@H]2c2ccc(CO)cc2I)cc1	0.323
CN1C2C=C(CCCO)C(C3C(=O)N(C(N)=O)C(=O)C32)C1c1cccs1 (centres undefined)	0.261
O=C1NC(=O)C2C1C=CC(C(O)c1c(F)cccc1Cl)N2Nc1ccccn1 (centres undefined)	-0.465
C=CCNC(=O)[C@@H]1[C@H]2C(=O)O[C@H](c3ccccc3)[C@H](c3ccccc3)N2[C@H](c2ccc(OCCO)cc2)[C@@]12C(=O)N(C(=O)OCCOC)c1ccc(C#CC3=CCCCC3)cc12	1.34
CC(C)C(=C=CC[C@@H](O)c1ccccc1OCCO)C[C@@H](O)COCc1ccccc1	0.247
CC(=O)n1cc(C(O)C2C=CC3C(=O)N(c4ccccc4)C(=O)C3N2Nc2ccccc2)c2ccccc21 (centres undefined)	-0.175
O=C1c2ccccc2[C@](Cc2ccccc2I)(C(=O)NCCN2CCOCC2)[C@H](c2ccc(CO)cc2)N1Cc1ccccc1	1.41
C[C@H]1C2=C3C(CC[C@H]4C(OCc5ccc(F)cc5C(F)(F)F)OC[C@](C)([C@@H]34)N(C(=O)OC(C)(C)C)C2)C(CO)C1CO (some centres undefined)	1.34
O=C(NC1CC1)[C@@H]1c2ccccc2C(=O)N(Cc2ccccc2)[C@H]1c1ccc(CO)cc1	0.511
O=C(O)[C@H]1C[C@H]2C(=O)N3CCC[C@H]3C(=O)N2[C@H]1c1cccc(OCCO)c1	1.1
